assay: Solubility of FF-MAS in water, ethanol and ethanol/water; assay type: physicochemical; details: organic solvent or mixture; in ethanol; read-out: solubility of FF-MAS in ethanol
assay-metric: solubility

Endpoint output: solubility of CC(C)=CCC[C@@H](C)[C@H]1CC=C2C3=C(CC[C@@]21C)[C@@]1(C)CC[C@H](O)C(C)(C)[C@@H]1CC3 . Value?
~12 mg/mL

----------
test: Solubility of FF-MAS in water, ethanol and ethanol/water; type: physicochemical; settings: ethanol/water (1:2.5), aqueous with cosolvent or surfactant or cyclodextrin; ethanol and water (1:2.5); preliminary investigations; read-out: highest solubility of FF-MAS in a mixture of ethanol and water
assay-metric: solubility

Endpoint output: solubility of CC(C)=CCC[C@@H](C)[C@H]1CC=C2C3=C(CC[C@@]21C)[C@@]1(C)CC[C@H](O)C(C)(C)[C@@H]1CC3 . Value?
~0.4 mg/mL
